All figures here come from patent EP4585599A1.

# PROTOCOL TEXT: Mouse PK assay after oral administration
# CONDITION CONTEXT: male, ICR, mouse, plasma, po, 30 mg/kg
# reported bioavailability; entries follow
Report as a plain number; the unit % is understood.

Here's what some known entries look like.
COc1cnc(Cl)c(F)c1-c1cc(C)ncc1C(=O)Nc1nc2cnc(-c3c(C)nnn3C)c(F)c2s1 :: 259
COc1cnc(C(F)F)cc1-c1cc(C)ncc1C(=O)Nc1nc2cnc(-c3c(C)noc3C)cc2s1 :: 311
COc1cnc(Cl)c(F)c1-c1cc(C)ncc1C(=O)Nc1nc2cnc(-c3c(C)nnn3C)cc2s1 :: 206
COc1cnc(Cl)cc1-c1cc(C)ncc1C(=O)Nc1nc2cnc(-c3c(C)nnn3C)c(F)c2s1 :: 178

Next:
# bioavailability of COc1cnc(Cl)cc1-c1cc(C)ncc1C(=O)Nc1nc2cnc(-c3c(C)nnn3C)cc2s1 = 151
